PROPERTY: logP

- COMPOUND: "CNC(=O)N(C)C(=O)Nc1cc(C(=O)OC)ccc1F"
  TEST RESULT: 2.28
- COMPOUND: "Fc1ccccc1C1OCC2ON=C(c3ccccc3)C2CO1 (configuration not stated)"
  TEST RESULT: 2.35
- COMPOUND: "CNC(=O)N(C)C(=O)Nc1ccccc1F"
  TEST RESULT: 2.12
- COMPOUND: "CN(C)C(=O)Nc1ccc(Oc2nnnn2C(C)(C)C)cc1"
  TEST RESULT: 1.65
- COMPOUND: "CNC(=O)N(C)C(=O)Nc1cc(C(C)C)ccc1F"
  TEST RESULT: 3.53
- COMPOUND: "CCn1nnnc1Oc1ccc(NC(=O)N(C)C)cc1Cl"
  TEST RESULT: 1.5
- COMPOUND: "CNC(=O)N(C)C(=O)Nc1cc(C2CCCCC2)ccc1F"
  TEST RESULT: 4.58

From: the OPERA property sets (Mansouri et al. 2018)
